The reported measurements were obtained from patent US20240301023A1.

Target: Kappa opioid receptor (KOR) (Homo sapiens (Human), UniProt P41145 1-380)
Sequence (P41145 whole entry, form in doubt): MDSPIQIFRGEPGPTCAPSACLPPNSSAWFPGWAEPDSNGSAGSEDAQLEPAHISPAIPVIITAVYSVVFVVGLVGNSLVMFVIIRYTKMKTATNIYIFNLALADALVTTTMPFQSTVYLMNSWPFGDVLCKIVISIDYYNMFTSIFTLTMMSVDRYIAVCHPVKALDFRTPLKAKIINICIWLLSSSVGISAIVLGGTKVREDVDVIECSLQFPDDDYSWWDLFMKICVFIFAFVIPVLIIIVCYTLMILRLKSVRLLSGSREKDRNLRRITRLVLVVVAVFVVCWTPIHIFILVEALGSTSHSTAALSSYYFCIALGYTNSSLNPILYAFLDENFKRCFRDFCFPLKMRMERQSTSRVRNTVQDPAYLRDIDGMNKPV
Assay: cell-based or functional assay
Square brackets hold non-standard residues; d marks the D form. Ends that are not written are not given here. Phe(4-NO2) = N[C@@H](Cc1ccc([N+](=O)[O-])cc1)C(=O)O; Phe(4-Cl) = N[C@@H](Cc1ccc(Cl)cc1)C(=O)O; Api = NC1(C(=O)O)CCNCC1; GABA = NCCCC(=O)O; Sar = CNCC(=O)O
Label Criterion met when cAMP assay (ALPHAScreen), result at 10 µM peptide is strictly below 30; at or above that, label Criterion not met.

Answered cases to consult:
- binder: "H-Y[Sar]FLR[dR]-NH2 [SEQ ID NO. 3: NH2-Tyr-Sar-Phe-Leu-Arg-DArg-NH2]"
  class.label: "Criterion not met"
- binder: "H-Y[Sar][Phe(4-Cl)]LR[dR]-NH2 [SEQ ID NO. 11: NH2-Tyr-Sar-(4-Cl)Phe-Leu-Arg-DArg-NH2]"
  class.label: "Criterion not met"

Strictly below 30: is that where cAMP assay (ALPHAScreen), result at 10 µM peptide of [dF][dF][dL][dK][Api]-OH (N-terminus assumed; SMILES CC(C)C[C@@H](NC(=O)[C@@H](Cc1ccccc1)NC(=O)[C@H](N)Cc1ccccc1)C(=O)N[C@H](CCCCN)C(=O)NC1(C(=O)O)CCNCC1) [CR845 (SEQ ID NO. 35: DPhe-DPhe-DLeu-DLys-Cap-CO2H)] sits?
Criterion not met

Strictly below 30: is that where cAMP assay (ALPHAScreen), result at 10 µM peptide of H-Y[Sar][Phe(4-NO2)]L[dR]R-NH2 [SEQ ID NO. 5: NH2-Tyr-Sar-(4-NO2)Phe-Leu-DArg-Arg-NH2] sits?
Criterion not met

Strictly below 30: is that where cAMP assay (ALPHAScreen), result at 10 µM peptide of H-Y[GABA]FLRR-NH2 (SMILES CC(C)C[C@H](NC(=O)[C@H](Cc1ccccc1)NC(=O)CCCNC(=O)[C@@H](N)Cc1ccc(O)cc1)C(=O)N[C@@H](CCCNC(=N)N)C(=O)N[C@@H](CCCNC(=N)N)C(N)=O) [SEQ ID NO. 1: NH2-Tyr-Gaba-Phe-Leu-Arg-Arg-NH2] sits?
Criterion met
